Tested on: PXR homodimer (NR concentration 270 nM)
test summary: PBM binding z-score (relative to random genomic background probes); higher = stronger binding; sequences stand for … in GC…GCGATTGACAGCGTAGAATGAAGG
Is PBM binding z-score at least -0.01? Then satisfied. If not, not satisfied.

> print(dat)
                        sequence.data                           assayed.system          group
1  TCATATAGATAAATGCTAGGTGAAAGTCCGATCT  PXR homodimer (NR concentration 270 nM)      satisfied
2  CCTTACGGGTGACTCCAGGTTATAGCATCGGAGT  PXR homodimer (NR concentration 270 nM)      satisfied
3  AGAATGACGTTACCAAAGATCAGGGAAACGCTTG  PXR homodimer (NR concentration 270 nM)  not satisfied
4  GCTCCTAGGTCAGGTTGGTCAGCTAACGGGTACG  PXR homodimer (NR concentration 270 nM)      satisfied
5  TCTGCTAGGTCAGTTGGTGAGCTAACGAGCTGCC  PXR homodimer (NR concentration 270 nM)  not satisfied
6  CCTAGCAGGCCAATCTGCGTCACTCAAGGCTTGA  PXR homodimer (NR concentration 270 nM)  not satisfied

* * *

Tested on: PXR:RXRa (NR concentration 270 nM, RXRa partner concentration 90 nM)
test summary: PBM binding z-score (relative to random genomic background probes); higher = stronger binding; sequences stand for … in GC…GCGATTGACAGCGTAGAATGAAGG
Each entry below carries its recorded PBM binding z-score.
quantity name: PBM binding z-score

> print(dat)
                         sequence.data  recorded.result
 1  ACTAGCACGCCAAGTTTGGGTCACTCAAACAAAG            0.524
 2  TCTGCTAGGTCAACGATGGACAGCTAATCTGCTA             1.32
 3  ATATGTAGGTTAGCTCGGGTCATTCAGACTAGGC             4.79
 4  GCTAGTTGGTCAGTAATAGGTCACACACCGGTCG              2.1
 5  TCTGACAGGTGAAGGTAACTCAGGTACGCAGTCG            0.483
 6  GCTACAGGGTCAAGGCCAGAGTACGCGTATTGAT                4
 7  AGTCAAAGCTCACTAGGTAACGTAAGATTCAGCT           -0.363
 8  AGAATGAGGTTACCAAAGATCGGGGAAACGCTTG              1.3
 9  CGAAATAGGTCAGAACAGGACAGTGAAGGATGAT             1.69
10  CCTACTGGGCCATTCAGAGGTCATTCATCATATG             4.81
11  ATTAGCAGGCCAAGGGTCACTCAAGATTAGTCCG              3.2
12  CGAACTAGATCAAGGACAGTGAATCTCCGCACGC           -0.495
13  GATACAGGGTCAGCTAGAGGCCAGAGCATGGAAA             2.88
14  CTGACTGGGGCAAGGTTACCATAACGCACAGCCA            0.519
15  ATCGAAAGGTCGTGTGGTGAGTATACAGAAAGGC             3.25
16  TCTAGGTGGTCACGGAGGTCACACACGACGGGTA             4.44
17  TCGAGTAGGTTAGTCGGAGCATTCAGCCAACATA           -0.452
18  TCGAGTAGGTTACAAATGGGGCATTCAGCTTTCT           0.0276

src = the supplement of paper PMC6555819
